Where do these numbers come from? They come from patent US20080021044A1.

Test: Solubility of the compound of formula (I) as a function of time in aqueous solvents (HPLC)
Type: physicochemical
Conditions: aqueous buffer, thermodynamic from solid; 0.1N NaOH (pH ˜12.8); 4 hr; 25° C. water bath, agitated
PARAMETER: solubility at 4 h
Write the numeric value and append its unit.

Quick one: solubility at 4 h for Cc1cnc(NCC(F)(F)c2ccccc2)c(=O)n1CC(=O)NCCONC(=N)N ?
1000 µg/mL

====

Test: Solubility of the compound of formula (I) as a function of time in aqueous solvents (HPLC)
Format: physicochemical
Conditions: thermodynamic from solid; water (pH ˜9); 48 hr; 25° C. water bath, agitated
PARAMETER: solubility at 48 h (µg/mL)
Field: numeric (µg/mL). Do not append units.

Quick one: solubility at 48 h for Cc1cnc(NCC(F)(F)c2ccccc2)c(=O)n1CC(=O)NCCONC(=N)N ?
1100
